- Measured target: Adenosine A2 receptor (UniProt P29275+P29274)
- Sequence (P29274 whole entry, looked up): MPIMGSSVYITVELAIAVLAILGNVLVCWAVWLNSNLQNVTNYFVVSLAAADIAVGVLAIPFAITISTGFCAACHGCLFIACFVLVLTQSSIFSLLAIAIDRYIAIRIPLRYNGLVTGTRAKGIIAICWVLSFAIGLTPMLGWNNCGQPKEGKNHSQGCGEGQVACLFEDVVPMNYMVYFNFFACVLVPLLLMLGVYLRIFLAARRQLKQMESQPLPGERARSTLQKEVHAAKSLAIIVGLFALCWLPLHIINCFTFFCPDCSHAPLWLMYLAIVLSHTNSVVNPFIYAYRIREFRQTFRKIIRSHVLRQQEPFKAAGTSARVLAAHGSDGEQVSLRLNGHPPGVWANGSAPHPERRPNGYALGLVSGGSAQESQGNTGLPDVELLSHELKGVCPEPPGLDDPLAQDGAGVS
- Sequence (P29275 whole entry, looked up): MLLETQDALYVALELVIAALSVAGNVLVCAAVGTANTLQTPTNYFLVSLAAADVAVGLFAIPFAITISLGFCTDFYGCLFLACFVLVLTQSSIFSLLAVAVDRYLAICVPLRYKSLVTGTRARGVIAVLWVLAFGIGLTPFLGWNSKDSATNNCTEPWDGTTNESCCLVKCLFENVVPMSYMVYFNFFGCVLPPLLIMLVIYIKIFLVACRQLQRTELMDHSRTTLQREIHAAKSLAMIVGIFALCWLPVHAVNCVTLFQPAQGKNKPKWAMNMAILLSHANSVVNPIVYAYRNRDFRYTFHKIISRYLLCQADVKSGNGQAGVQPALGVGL
- Assay context: Canis lupus familiaris
- Description: Molar potency ratio (MPR) against adenosine A2 receptor of canine coronary artery

>  <Compound>
Cc1ccccc1CNc1ncnc2c1ncn2[C@@H]1O[C@H](CO)[C@@H](O)[C@H]1O

>  <MPR>
1.8

$$$$
>  <Compound>
OC[C@H]1OC(n2cnc3c(NCCc4cccc(Cl)c4)ncnc32)[C@H](O)[C@@H]1O (stereo not given in full)

>  <MPR>
1.3

$$$$
>  <Compound>
OC[C@H]1OC(n2cnc3c(Nc4ccc(F)cc4)ncnc32)[C@H](O)[C@@H]1O (stereo not given in full)

>  <MPR>
1.5

$$$$
>  <Compound>
OC[C@H]1OC(n2cnc3c(NCCc4cccc5ccccc45)ncnc32)[C@H](O)[C@@H]1O (stereo not given in full)

>  <MPR>
0.11

$$$$
>  <Compound>
OC[C@H]1OC(n2cnc3c(NCc4ccncc4)ncnc32)[C@H](O)[C@@H]1O (stereo not given in full)

>  <MPR>
0.42

$$$$

* * *

- Method notes: Index of hydrophobicity (k')
- Format: ADME
k' under 3 gets fulfilled, anything at or over 3 gets not fulfilled.

>  <Molecule>
OC[C@H]1OC(n2cnc3c(NC4CCCC[C@@H]4c4ccccc4)ncnc32)[C@H](O)[C@@H]1O (some centres undefined)

>  <Class label>
fulfilled

$$$$
>  <Molecule>
OC[C@H]1O[C@@H](n2cnc3c(NCC(c4ccccc4)c4ccccc4)ncnc32)[C@H](O)[C@@H]1O

>  <Class label>
not fulfilled

$$$$
>  <Molecule>
COc1cccc(Nc2ncnc3c2ncn3C2O[C@H](CO)[C@@H](O)[C@H]2O)c1 (some centres undefined)

>  <Class label>
fulfilled

$$$$
>  <Molecule>
OC[C@H]1OC(n2cnc3c(NCc4cc(Cl)cc(Cl)c4)ncnc32)[C@H](O)[C@@H]1O (some centres undefined)

>  <Class label>
not fulfilled

$$$$
>  <Molecule>
OC[C@H]1OC(n2cnc3c(NCCc4ccc5ccccc5c4)ncnc32)[C@H](O)[C@@H]1O (some centres undefined)

>  <Class label>
not fulfilled

$$$$
>  <Molecule>
Cc1cccc(CCNc2ncnc3c2ncn3C2O[C@H](CO)[C@@H](O)[C@H]2O)c1 (some centres undefined)

>  <Class label>
not fulfilled

$$$$
>  <Molecule>
OC[C@H]1OC(n2cnc3c(Nc4ccccc4F)ncnc32)[C@H](O)[C@@H]1O (some centres undefined)

>  <Class label>
fulfilled

$$$$
>  <Molecule>
OC[C@H]1OC(n2cnc3c(NCCc4ccccc4Cl)ncnc32)[C@H](O)[C@@H]1O (some centres undefined)

>  <Class label>
not fulfilled

$$$$
>  <Molecule>
Cc1ccc(C)c(Nc2ncnc3c2ncn3C2O[C@H](CO)[C@@H](O)[C@H]2O)c1 (some centres undefined)

>  <Class label>
not fulfilled

$$$$
>  <Molecule>
OC[C@H]1OC(n2cnc3c(NCCc4cccs4)ncnc32)[C@H](O)[C@@H]1O (some centres undefined)

>  <Class label>
fulfilled

$$$$
>  <Molecule>
OC[C@H]1OC(n2cnc3c(NOCCc4ccccc4)ncnc32)[C@H](O)[C@@H]1O (some centres undefined)

>  <Class label>
fulfilled

$$$$
>  <Molecule>
OC[C@H]1OC(n2cnc3c(NCc4cc(Cl)ccc4Cl)ncnc32)[C@H](O)[C@@H]1O (some centres undefined)

>  <Class label>
not fulfilled

$$$$
>  <Molecule>
C[C@@H](Nc1ncnc2c1ncn2[C@@H]1O[C@H](CO)[C@@H](O)[C@H]1O)c1ccccc1

>  <Class label>
fulfilled

$$$$
>  <Molecule>
Cc1ccc(CCNc2ncnc3c2ncn3C2O[C@H](CO)[C@@H](O)[C@H]2O)cc1 (some centres undefined)

>  <Class label>
not fulfilled

$$$$
>  <Molecule>
COc1ccccc1CCNc1ncnc2c1ncn2C1O[C@H](CO)[C@@H](O)[C@H]1O (some centres undefined)

>  <Class label>
fulfilled

$$$$
>  <Molecule>
Cn1cccc1CCNc1ncnc2c1ncn2C1O[C@H](CO)[C@@H](O)[C@H]1O (some centres undefined)

>  <Class label>
fulfilled

$$$$
>  <Molecule>
COc1cc(OC)c(OC)cc1CCNc1ncnc2c1ncn2C1O[C@H](CO)[C@@H](O)[C@H]1O (some centres undefined)

>  <Class label>
fulfilled

$$$$
>  <Molecule>
COc1ccc(Nc2ncnc3c2ncn3[C@@H]2O[C@H](CO)[C@@H](O)[C@H]2O)cc1

>  <Class label>
fulfilled

$$$$

* * *

- Measured target: Adenosine A2 receptor (UniProt P29275+P29274)
- Method notes: Association constant against A2 adenosine receptor
- Type: protein assay
- Assay context: Canis lupus familiaris
K under 10000 M⁻¹ gets true (1), anything at or over 10000 M⁻¹ gets false (0).

>  <Compound>
OC[C@H]1OC(n2cnc3c(NCCc4ccccc4Cl)ncnc32)[C@H](O)[C@@H]1O (stereo not given in full)

>  <Measured target>
Adenosine A2 receptor (UniProt P29275+P29274)

>  <Class label>
false (0)

$$$$
>  <Compound>
OC[C@H]1OC(n2cnc3c(Nc4cccc(F)c4)ncnc32)[C@H](O)[C@@H]1O (stereo not given in full)

>  <Measured target>
Adenosine A2 receptor (UniProt P29275+P29274)

>  <Class label>
true (1)

$$$$
>  <Compound>
OC[C@H]1O[C@@H](n2cnc3c(Nc4ccccc4)ncnc32)[C@H](O)[C@@H]1O

>  <Measured target>
Adenosine A2 receptor (UniProt P29275+P29274)

>  <Class label>
true (1)

$$$$
>  <Compound>
OC[C@H]1OC(n2cnc3c(Nc4ccc(F)cc4)ncnc32)[C@H](O)[C@@H]1O (stereo not given in full)

>  <Measured target>
Adenosine A2 receptor (UniProt P29275+P29274)

>  <Class label>
true (1)

$$$$

* * *

- Measured target: Adenosine A2 receptor (UniProt P29275+P29274)
- Method notes: Acidic dissociation constant(pKa) against A2 adenosine receptor of coronary artery
- Assay type: protein assay
- Assay context: Canis lupus familiaris
Each entry below carries its reported pka.
Quantity: pka

>  <Compound>
OC[C@H]1OC(n2cnc3c(Nc4ccc(F)cc4)ncnc32)[C@H](O)[C@@H]1O (stereo not given in full)

>  <Measured target>
Adenosine A2 receptor (UniProt P29275+P29274)

>  <Quantity>
pka

>  <Qualifier symbol>
=

>  <Observed value>
2.65

$$$$
>  <Compound>
OC[C@H]1O[C@@H](n2cnc3c(NCc4ccc(Cl)cc4)ncnc32)[C@H](O)[C@@H]1O

>  <Measured target>
Adenosine A2 receptor (UniProt P29275+P29274)

>  <Quantity>
pka

>  <Qualifier symbol>
=

>  <Observed value>
3.61

$$$$
>  <Compound>
OC[C@H]1OC(n2cnc3c(NCCc4ccccc4F)ncnc32)[C@H](O)[C@@H]1O (stereo not given in full)

>  <Measured target>
Adenosine A2 receptor (UniProt P29275+P29274)

>  <Quantity>
pka

>  <Qualifier symbol>
=

>  <Observed value>
3.19

$$$$
>  <Compound>
Cc1ccc(Nc2ncnc3c2ncn3C2O[C@H](CO)[C@@H](O)[C@H]2O)cc1 (stereo not given in full)

>  <Measured target>
Adenosine A2 receptor (UniProt P29275+P29274)

>  <Quantity>
pka

>  <Qualifier symbol>
=

>  <Observed value>
2.79

$$$$
>  <Compound>
OC[C@H]1O[C@@H](n2cnc3c(NCc4ccccc4)ncnc32)[C@H](O)[C@@H]1O

>  <Measured target>
Adenosine A2 receptor (UniProt P29275+P29274)

>  <Quantity>
pka

>  <Qualifier symbol>
=

>  <Observed value>
3.07

$$$$
>  <Compound>
Cc1cccc(Nc2ncnc3c2ncn3C2O[C@H](CO)[C@@H](O)[C@H]2O)c1 (stereo not given in full)

>  <Measured target>
Adenosine A2 receptor (UniProt P29275+P29274)

>  <Quantity>
pka

>  <Qualifier symbol>
=

>  <Observed value>
2.79

$$$$
>  <Compound>
Cc1ccccc1Nc1ncnc2c1ncn2C1O[C@H](CO)[C@@H](O)[C@H]1O (stereo not given in full)

>  <Measured target>
Adenosine A2 receptor (UniProt P29275+P29274)

>  <Quantity>
pka

>  <Qualifier symbol>
=

>  <Observed value>
2.98

$$$$
>  <Compound>
OC[C@H]1OC(n2cnc3c(Nc4ccccc4Cl)ncnc32)[C@H](O)[C@@H]1O (stereo not given in full)

>  <Measured target>
Adenosine A2 receptor (UniProt P29275+P29274)

>  <Quantity>
pka

>  <Qualifier symbol>
=

>  <Observed value>
2.76

$$$$
>  <Compound>
OC[C@H]1O[C@@H](n2cnc3c(Nc4ccccc4)ncnc32)[C@H](O)[C@@H]1O

>  <Measured target>
Adenosine A2 receptor (UniProt P29275+P29274)

>  <Quantity>
pka

>  <Qualifier symbol>
=

>  <Observed value>
2.73

$$$$
>  <Compound>
OC[C@H]1OC(n2cnc3c(Nc4ccccc4F)ncnc32)[C@H](O)[C@@H]1O (stereo not given in full)

>  <Measured target>
Adenosine A2 receptor (UniProt P29275+P29274)

>  <Quantity>
pka

>  <Qualifier symbol>
=

>  <Observed value>
2.39

$$$$
>  <Compound>
OC[C@H]1OC(n2cnc3c(Nc4cccc(F)c4)ncnc32)[C@H](O)[C@@H]1O (stereo not given in full)

>  <Measured target>
Adenosine A2 receptor (UniProt P29275+P29274)

>  <Quantity>
pka

>  <Qualifier symbol>
=

>  <Observed value>
2.66

$$$$
>  <Compound>
COc1cccc(Nc2ncnc3c2ncn3C2O[C@H](CO)[C@@H](O)[C@H]2O)c1 (stereo not given in full)

>  <Measured target>
Adenosine A2 receptor (UniProt P29275+P29274)

>  <Quantity>
pka

>  <Qualifier symbol>
=

>  <Observed value>
2.59

$$$$
>  <Compound>
OC[C@H]1OC(n2cnc3c(NCCc4cccnc4)ncnc32)[C@H](O)[C@@H]1O (stereo not given in full)

>  <Measured target>
Adenosine A2 receptor (UniProt P29275+P29274)

>  <Quantity>
pka

>  <Qualifier symbol>
<

>  <Observed value>
1

$$$$
>  <Compound>
OC[C@H]1OC(n2cnc3c(NCc4ccccc4F)ncnc32)[C@H](O)[C@@H]1O (stereo not given in full)

>  <Measured target>
Adenosine A2 receptor (UniProt P29275+P29274)

>  <Quantity>
pka

>  <Qualifier symbol>
=

>  <Observed value>
3.08

$$$$
>  <Compound>
OC[C@H]1OC(n2cnc3c(NCCc4ccccc4Cl)ncnc32)[C@H](O)[C@@H]1O (stereo not given in full)

>  <Measured target>
Adenosine A2 receptor (UniProt P29275+P29274)

>  <Quantity>
pka

>  <Qualifier symbol>
=

>  <Observed value>
3.27

$$$$
